Known shrunken log2 fold change of a selection of sequences
system: Escherichia coli TOP10; experiment: shrunken log2 fold change of peptide-encoding DNA abundance (4.5 h post-induction vs induction); higher = less antimicrobial activity (less host growth inhibition); details: time post-induction: 4.5 h; library: site-saturation at positions 5, 18, 19, 20;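 also: peptides expressed intracellularly from a pBAD plasmid library in pooled LB shake-flask culture, induced with 0.3% L-arabinose, DNA abundance read by NGS, three biological replicates, DESeq2 with apeglm shrinkage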
# output: bare number, no unit

Here's what some known entries look like.
>  <inputSequence>
RRIRNRPPRLPRPRPRPQLIPRP

>  <shrunken log2 fold change>
-0.0323

$$$$
>  <inputSequence>
RRIRNRPPRLPRPRPRPYCVPRP

>  <shrunken log2 fold change>
-0.172

$$$$
>  <inputSequence>
RRIRKRPPRLPRPRPRPRCWPRP

>  <shrunken log2 fold change>
0.931

$$$$
>  <inputSequence>
RRIRARPPRLPRPRPRPWTRPRP

>  <shrunken log2 fold change>
0.27

$$$$
>  <inputSequence>
RRIRWRPPRLPRPRPRPKDKPRP

>  <shrunken log2 fold change>
0.077

$$$$

IN: # input sequence: `RRIRIRPPRLPRPRPRPMPQPRP` ; wanted: its shrunken log2 fold change
OUT: -0.133

IN: # input sequence: `RRIRWRPPRLPRPRPRPQFRPRP` ; wanted: its shrunken log2 fold change
OUT: -0.0234

IN: # input sequence: `RRIRYRPPRLPRPRPRPCTQPRP` ; wanted: its shrunken log2 fold change
OUT: -1.32

IN: # input sequence: `RRIRDRPPRLPRPRPRPADTPRP` ; wanted: its shrunken log2 fold change
OUT: -0.379
